# assayOverview: Solubility measurements of lipid derivatives in water, saline, ethanol and octanol
# conditionsUsed: water, 22 °C
measure: solubility (µg/mL)
Give a bare numeral; the unit µg/mL is implied.

Request: Using the record for CCCCCCCCCCCCCCCCCC(=O)OC[C@H](COP(=O)([O-])OCC[N+](C)(C)C)OC(=O)CCCNC(=O)Cc1ccccc1Nc1c(Cl)cccc1Cl [DCF n=3] , report its solubility.
Result: 2

Request: I have this compound here, CCCCCCCCCCCCCCCCCC(=O)OC[C@H](COP(=O)([O-])OCC[N+](C)(C)C)OC(=O)CCCCNC(=O)Cc1ccccc1Nc1c(Cl)cccc1Cl [DCF n=4] , and I need its recorded solubility.
Result: 2

Request: Could you share which solubility value was measured for CCCCCCCCCCCCCCCCCC(=O)OC[C@H](COP(=O)([O-])OCC[N+](C)(C)C)OC(=O)CCCCCCCNC(=O)Cc1ccccc1Nc1c(Cl)cccc1Cl [DCF n=7] ?
Result: 1

###

# assayOverview: Octanol/saline distribution (partition coefficient Pc), shake-flask technique
# conditionsUsed: 22° C., shake-flask
measure: log Pc (octanol/saline distribution coefficient)

[[record]]
molecule = "CCCCCCCCCCCCCCCCCC(=O)OC[C@H](COP(=O)([O-])OCC[N+](C)(C)C)OC(=O)CCCNC(=O)[C@@H](C)c1ccc2cc(OC)ccc2c1"
measurement = "≧3"

[[record]]
molecule = "CCCCCCCCCCCCCCCCCC(=O)OC[C@H](COP(=O)([O-])OCC[N+](C)(C)C)OC(=O)CCCCCNC(=O)C(C)c1ccc(CC(C)C)cc1 (stereo partly drawn)"
measurement = "≧3"

[[record]]
molecule = "CCCCCCCCCCCCCCCCCC(=O)OC[C@H](COP(=O)([O-])OCC[N+](C)(C)C)OC(=O)CCCCCCCCCCCNC(=O)Cc1ccccc1Nc1c(Cl)cccc1Cl"
measurement = "≧2.5"

[[record]]
molecule = "CCCCCCCCCCCCCCCCCC(=O)OC[C@H](COP(=O)([O-])OCC[N+](C)(C)C)OC(=O)CCCCNC(=O)Cc1ccccc1Nc1c(Cl)cccc1Cl"
measurement = "≧3"

[[record]]
molecule = "CCCCCCCCCCCCCCCCCC(=O)OC[C@H](COP(=O)([O-])OCC[N+](C)(C)C)OC(=O)CCCCNC(=O)Cc1c(C)n(C(=O)c2ccc(Cl)cc2)c2ccc(OC)cc12"
measurement = 2.9

[[record]]
molecule = "CCCCCCCCCCCCCCCCCC(=O)OC[C@H](COP(=O)([O-])OCC[N+](C)(C)C)OC(=O)CCCCCCCNC(=O)Cc1ccccc1Nc1c(Cl)cccc1Cl"
measurement = "≧3"


Request: If you can, please state the reported log Pc (octanol/saline distribution coefficient) value of CCCCCCCCCCCCCCCCCC(=O)OC[C@H](COP(=O)([O-])OCC[N+](C)(C)C)OC(=O)CCNC(=O)[C@@H](C)c1ccc2cc(OC)ccc2c1 .
Result: ≧3

Request: What value of measured log Pc (octanol/saline distribution coefficient) is listed for CCCCCCCCCCCCCCCCCC(=O)OC[C@H](COP(=O)([O-])OCC[N+](C)(C)C)OC(=O)CCCCCNC(=O)[C@@H](C)c1ccc2cc(OC)ccc2c1 ?
Result: ≧3

Request: log Pc (octanol/saline distribution coefficient) for CCCCCCCCCCCCCCCCCC(=O)OC[C@H](COP(=O)([O-])OCC[N+](C)(C)C)OC(=O)CCCNC(=O)Cc1ccccc1Nc1c(Cl)cccc1Cl ?
Result: ≧3

###

# assayOverview: Solubility measurements of lipid derivatives in water, saline, ethanol and octanol
# conditionsUsed: saline, 22 °C, saline or isotonic
measure: solubility (µg/mL)
Field: numeric (µg/mL). Do not append units.

[[record]]
cpdsmiles = "CCCCCCCCCCCCCCCCCC(=O)OC[C@H](COP(=O)([O-])OCC[N+](C)(C)C)OC(=O)CCCCNC(=O)Cc1ccccc1Nc1c(Cl)cccc1Cl"
measurement = 2


Now turn to the next molecule.
Request: Any idea what solubility was measured for CCCCCCCCCCCCCCCCCC(=O)OC[C@H](COP(=O)([O-])OCC[N+](C)(C)C)OC(=O)CCCNC(=O)Cc1ccccc1Nc1c(Cl)cccc1Cl ?
Result: 2

###

Item-by-item account of solubility
# assayOverview: Solubility measurements of lipid derivatives in water, saline, ethanol and octanol
# conditionsUsed: water, 22 °C
Note: unit µg/mL is implicit; provide only the numeric part.

[[record]]
compound = "CCCCCCCCCCCCCCCCCC(=O)OC[C@H](COP(=O)([O-])OCC[N+](C)(C)C)OC(=O)CCNC(=O)Cc1ccccc1Nc1c(Cl)cccc1Cl [DCF n=2]"
measure = "solubility"
measurement = 3


Now, please, on to the next compound.
Request: Given CCCCCCCCCCCCCCCCCC(=O)OC[C@H](COP(=O)([O-])OCC[N+](C)(C)C)OC(=O)CCCCCNC(=O)C(C)c1ccc(CC(C)C)cc1 (stereo partly shown) [Ibu n=5] , state its recorded solubility.
Result: 500

###

# assayOverview: Solubility measurements of lipid derivatives in water, saline, ethanol and octanol
# conditionsUsed: saline, 22 °C, saline or isotonic
Quick reference for solubility among some compounds

See these solved cases before continuing.
[[record]]
compound = "CCCCCCCCCCCCCCCCCC(=O)OC[C@H](COP(=O)([O-])OCC[N+](C)(C)C)OC(=O)CCNC(=O)C(C)c1ccc(CC(C)C)cc1 (stereo partly drawn) [Ibu n=2]"
measure = "solubility"
measurement = "300 µg/mL"

[[record]]
compound = "CCCCCCCCCCCCCCCCCC(=O)OC[C@H](COP(=O)([O-])OCC[N+](C)(C)C)OC(=O)CCCCCNC(=O)C(C)c1ccc(CC(C)C)cc1 (stereo partly drawn) [Ibu n=5]"
measure = "solubility"
measurement = "500 µg/mL"


Continue with the next compound.
Request: Look at this compound and give its reported solubility. CCCCCCCCCCCCCCCCCC(=O)OC[C@H](COP(=O)([O-])OCC[N+](C)(C)C)OC(=O)CCNC(=O)Cc1ccccc1Nc1c(Cl)cccc1Cl [DCF n=2]
Result: 2 µg/mL

###

# assayOverview: Solubility measurements of lipid derivatives in water, saline, ethanol and octanol
# conditionsUsed: saline, 22 °C, saline or isotonic
measure: solubility

[[record]]
cpdsmiles = "CCCCCCCCCCCCCCCCCC(=O)OC[C@H](COP(=O)([O-])OCC[N+](C)(C)C)OC(=O)CCNC(=O)Cc1c(C)n(C(=O)c2ccc(Cl)cc2)c2ccc(OC)cc12"
measurement = "~1500 µg/mL"

[[record]]
cpdsmiles = "CCCCCCCCCCCCCCCCCC(=O)OC[C@H](COP(=O)([O-])OCC[N+](C)(C)C)OC(=O)CCCCCNC(=O)Cc1c(C)n(C(=O)c2ccc(Cl)cc2)c2ccc(OC)cc12"
measurement = "~10 µg/mL"


Shift focus to the following entry.
Request: Name the reported solubility value associated with the molecule CCCCCCCCCCCCCCCCCC(=O)OC[C@H](COP(=O)([O-])OCC[N+](C)(C)C)OC(=O)CCCCCCCNC(=O)Cc1ccccc1Nc1c(Cl)cccc1Cl
Result: 1 µg/mL

###

# assayOverview: Solubility measurements of lipid derivatives in water, saline, ethanol and octanol
# conditionsUsed: saline, 22 °C, saline or isotonic
measure: solubility

Please review the following examples before continuing.
[[record]]
compound = "CCCCCCCCCCCCCCCCCC(=O)OC[C@H](COP(=O)([O-])OCC[N+](C)(C)C)OC(=O)CCCNC(=O)Cc1c(C)n(C(=O)c2ccc(Cl)cc2)c2ccc(OC)cc12 [Indo n=3]"
measurement = "~1500 µg/mL"

[[record]]
compound = "CCCCCCCCCCCCCCCCCC(=O)OC[C@H](COP(=O)([O-])OCC[N+](C)(C)C)OC(=O)CCCCCCCCCCCNC(=O)Cc1ccccc1Nc1c(Cl)cccc1Cl [DCF n=11]"
measurement = "< 1 µg/mL"


Query compound follows.
Request: Sample CCCCCCCCCCCCCCCCCC(=O)OC[C@H](COP(=O)([O-])OCC[N+](C)(C)C)OC(=O)CCCCNC(=O)Cc1c(C)n(C(=O)c2ccc(Cl)cc2)c2ccc(OC)cc12 [Indo n=4] — what was its solubility?
Result: ~100 µg/mL
